- System: HOP-62
- procedure details: NCI tumour cell line growth inhibition, 48 h
Active and inactive are the calls of the source. Rule as the data show it: active = GI50 up to about 1.1 µM and inactive = higher.
measure name: GI50

For record `CN1CCC(C(=O)NNc2ccccc2)CC1` the listed GI50 is 14.3 µM (inactive)

Given item `COc1ccccc1-n1nnc2c(N)nc(N)nc21` , the value recorded as its GI50 is > 100 µM (inactive)

Record summary for N=C(N)Nc1ccc(CC(N)C(=O)O)cc1 (stereo unspecified) : reported GI50 = > 12.5 µM (inactive)

Quick note, GI50 for `O=C1C=C(Br)C(=O)C(Br)=C1` landed at > 100 µM (inactive)

The reported GI50 of the compound `CC1=C(C)C(=O)C(C2=CC(=O)c3ccccc3C2=O)=C(C2=CC(=O)c3ccccc3C2=O)C1=O` was 12.4 µM (inactive)

According to the records, this compound `COc1ccc(C2=C(N)c3cc(OC)ccc3C2=O)cc1` displays GI50 of > 100 µM (inactive)

GI50 reported for this compound CC1=CN(c2ccccc2)S2=C1c1sc3c(c1N2c1ccc(Br)cc1)CCCC3 (stereo unspecified) : > 100 µM (inactive)

Query `CC(=O)Oc1ccc(CO)cc1OC(C)=O` yields GI50 of > 100 µM (inactive)

Per the records, this compound ( O=C1CC(c2cccc(Cl)c2)Oc2ccccc21 (stereo unspecified) ) has GI50 equal to 17.1 µM (inactive)

GI50 in this record for `COc1ccc(-c2nc(N3CCCC3)no2)cc1` : 27.9 µM (inactive)

Memo: CCCCOP1(=O)C=C(C)C(=C(Cl)Cl)C(C)=C1 (stereo unspecified) , reported GI50: 13.9 µM (inactive)

Reported GI50 of COc1cc2c3c4c1OCc1c5c(cc(c1-4)CC3[N+](C)(C)CC2)OCO5 (stereo unspecified) : 31.1 µM (inactive)

So for `Cc1ccc(C2=Nc3ccccc3NC(=O)C2)cc1` , the logged GI50 turned out to be > 100 µM (inactive)

What the record says about `C=C1C(=O)O[C@H]2[C@@H]3O[C@@](C)(CC/C=C(\C)CCC[C@@H]2C)[C@H](O)C[C@@H]13` : GI50 is 10.5 µM (inactive)

Reported GI50 for `CC(C)/C(Cl)=N\OC(=O)Nc1ccc(F)cc1` was 19.2 µM (inactive)

Value of measured GI50 for the entry `COc1ccc(NC(=S)Nc2c(C)n(C)n(-c3ccccc3)c2=O)cc1` : > 100 µM (inactive)

The compound listed as `COc1ccc(-n2c(C)nc3ccc(/N=C/c4ccccc4)cc3c2=O)cc1` has a reported GI50 of > 100 µM (inactive)

According to the records, this compound Cc1ccc(S(=O)(=O)OC2C3OC(C)(C)OC3OC2C(c2cc(O)c3c(c2O)C(=O)c2ccccc2C3=O)c2cc(O)c3c(c2O)C(=O)c2ccccc2C3=O)cc1 (stereo unspecified) displays GI50 of > 10 µM (inactive)

// `Cc1cc2c(c3c1c1ccccc1n3C)C(=O)C=CC2=O` : GI50 value = 44.1 µM (inactive)

Data point: c1ccc2c(c1)CCN1CCc3c([nH]c4ccccc34)C21 (stereo unspecified) ; GI50 = 36 µM (inactive)

compound N#CC1=C(N)OC2=C(CCCc3ccccc32)C1c1ccc([N+](=O)[O-])cc1 (stereo unspecified) , GI50 observed: 17.2 µM (inactive)

Input COC(=O)CCC(=O)NC1c2cccc3cccc(c23)Cn2c(=O)n(C)c(=O)n21 (stereo unspecified) . Output GI50: > 100 µM (inactive)

Per the records, this compound ( `OCC[N+]12CCCN1CCC2` ) has GI50 equal to > 100 µM (inactive)

The compound identified as `C=C1C(=O)O[C@@H]2C[C@@]3(C)CC(=O)C=C(C)[C@@H]3C[C@H]12` registered its GI50 at 18 µM (inactive)

GI50 recorded for this compound, `COc1cc(/C=C/c2ccc(OC(C)=O)cc2)cc(OC)c1OC` , is 45.7 µM (inactive)

What the record says about `c1csc(-c2ccc(-c3cccc4nsnc34)s2)c1` : GI50 is 27.4 µM (inactive)

Reported GI50 ( `COc1ccc(-c2cc(O)c3cc4c(cc3n2)OCO4)cc1` ) = 61 µM (inactive)

According to the records, this compound `CCOC(=O)N1CCN(Cc2cc(=O)n3cc(C)ccc3n2)CC1` displays GI50 of > 100 µM (inactive)

Entry CC1CNC(c2ccc3c(c2)Cc2cc(C4=NC(C)CN4)ccc2-3)=N1 (stereo unspecified) , GI50 reported as 41 µM (inactive)

The recorded GI50 for `N#Cc1nc(C2CCC2)oc1N` is > 100 µM (inactive)

Sample `CS/C(N)=N/c1cccc2ccccc12` ; GI50 observed: > 10 µM (inactive)

Item: `CN(/N=C/C=N/N(C)C1=NCCCCN1)C1=NCCCCN1` | GI50: > 100 µM (inactive)

GI50 recorded for this compound, `COc1ccc(/C=C2\Cc3ccccc3C2=O)cc1OC` , is > 100 µM (inactive)

response.value for CC1OC(n2cc(F)c(=O)[nH]c2=O)CCC1=O (stereo unspecified) (field: GI50) = 50.8 µM (inactive)

The value of GI50 measured for the compound `Cc1nc(C(N)=S)sc1/C(CC(=O)C(=O)Nc1cccc2ccc(O)cc12)=N\NC(=O)c1ccncc1` turned out to be 37.5 µM (inactive)

Reported GI50 of `Nc1nccc(Nc2ccc(S(N)(=O)=O)cc2)n1` : > 100 µM (inactive)

Memo: `CC(C)Nc1n[nH]c(=O)n1C(C)C` , reported GI50: > 100 µM (inactive)

Record summary for Cc1ccc(S(=O)(=O)N/N=C2\CC3C4CCC3C2C4)cc1 (stereo unspecified) : reported GI50 = > 100 µM (inactive)

Entry CC(c1ccc(Br)cc1)C(C(=O)O)C(=O)O (stereo unspecified) ; GI50 = > 100 µM (inactive)

In plain terms, COc1ccc(N2C(=O)C3c4[nH]c5ccccc5c4C4CCC(C(C)(C)C)CC4C3C2=O)cc1OC (stereo unspecified) has a documented GI50 of 18 µM (inactive)

For `O=[N+]([O-])C1(CO)COC2(OC1)c1ccccc1-c1ccccc12` the compound record lists GI50 as > 100 µM (inactive)

The compound listed as `CCNC(=O)OCc1c(COC(=O)NCC)c(-c2ccc(Cl)c(Cl)c2)n2c1CCC2` has a reported GI50 of 7.33 µM (inactive)

# GI50 (compound: CC(C)(C)OP(=O)(OC(C)(C)C)C(O)c1ccc(/C=C(\C#N)C(N)=O)cc1 (stereo unspecified) ) is > 100 µM (inactive)

Entry under test: `COc1cc(OC)cc(N2CCC(c3c(N)nc(N)nc3Cl)CC2)c1` . Its GI50 was 62.2 µM (inactive)

The compound listed as COP(=O)(CP(=O)(OC)OCCC(C)CCC=C(C)C)OC (stereo unspecified) shows GI50 equal to 69.7 µM (inactive)

Looking up `CN(C)CCCNC(=O)c1c(O)c2ccccc2[nH]c1=O` , I see its GI50 listed as > 100 µM (inactive)
